# test_target: human V1b receptors (Homo sapiens, UniProt P47901)
# Construct: host or cells: cellular or adenohypophyseal membrane preparations
# Sequence (P47901 whole entry): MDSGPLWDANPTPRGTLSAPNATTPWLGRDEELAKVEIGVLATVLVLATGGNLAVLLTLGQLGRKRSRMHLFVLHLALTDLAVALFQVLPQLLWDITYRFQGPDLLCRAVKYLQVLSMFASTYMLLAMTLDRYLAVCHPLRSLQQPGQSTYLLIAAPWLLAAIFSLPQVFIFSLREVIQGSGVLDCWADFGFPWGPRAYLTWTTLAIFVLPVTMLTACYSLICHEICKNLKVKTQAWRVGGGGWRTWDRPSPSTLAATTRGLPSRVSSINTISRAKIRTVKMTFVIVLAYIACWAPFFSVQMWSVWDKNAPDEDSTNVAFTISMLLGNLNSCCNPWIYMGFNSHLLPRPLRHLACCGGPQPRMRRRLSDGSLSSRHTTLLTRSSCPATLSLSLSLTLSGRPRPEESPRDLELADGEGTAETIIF
# experimental_details: Displacement of [3H]-AVP binding to human V1b receptors
# test_context: cellular or adenohypophyseal membrane preparations
attribute_measured: pIC50
Please keep in mind that pIC50 is minus log10 of the molar concentration; only the number is needed.

[in] Look up pIC50 for this compound: `COc1ccc(S(=O)(=O)N2C(=O)[C@@](c3ccccc3OC)(N3C[C@H](OC(C)=O)C[C@H]3C(=O)N(C)C)c3cc(Cl)ccc32)c(OC)c1`
[out] 8.47

Just for reference, patent US7202267B2 is where these values come from.
